Where do these numbers come from? They come from paper PMC9601927.

- assay-comment: ANC transmembrane transport across Caco-2 cell monolayer (Transwell, HPLC)
- Type: in vitro ADME
- experimental-context: human, Caco-2; ANC alone, overall statement
measured-quantity: Papp at 4 h

Entry OC[C@H]1O[C@@H](Oc2cc3c(O)cc(O)cc3[o+]c2-c2ccc(O)c(O)c2)[C@H](O)[C@@H](O)[C@@H]1O [ANC, Cyanidin-3-glucoside] — recorded Papp at 4 h = < 1 ×10⁻⁶ cm/s

----------
- assay-comment: ANC transmembrane transport across Caco-2 cell monolayer (Transwell, HPLC)
- Type: in vitro ADME
- experimental-context: human, Caco-2; ANC 0.10 ×10^−3 mg/mL, 4 h
measured-quantity: Papp A→B at 4 h, 0.1 ×10^−3 mg/mL (×10⁻⁶ cm/s)
Could you give me the number in ×10⁻⁶ cm/s? Just the number is fine.

Entry OC[C@H]1O[C@@H](Oc2cc3c(O)cc(O)cc3[o+]c2-c2ccc(O)c(O)c2)[C@H](O)[C@@H](O)[C@@H]1O [ANC, Cyanidin-3-glucoside] — recorded Papp A→B at 4 h, 0.1 ×10^−3 mg/mL = 0.961

----------
- assay-comment: ANC transmembrane transport across Caco-2 cell monolayer (Transwell, HPLC)
- Assay type: in vitro ADME
- experimental-context: human, Caco-2; ANC 0.05 ×10^−3 mg/mL, 4 h; read-out: Papp (B→A)/ Papp (A→B)
measured-quantity: efflux ratio at 4 h, 0.05 ×10^−3 mg/mL

Entry OC[C@H]1O[C@@H](Oc2cc3c(O)cc(O)cc3[o+]c2-c2ccc(O)c(O)c2)[C@H](O)[C@@H](O)[C@@H]1O [ANC, Cyanidin-3-glucoside] — recorded efflux ratio at 4 h, 0.05 ×10^−3 mg/mL = 0.77

----------
- assay-comment: ANC transmembrane transport across Caco-2 cell monolayer (Transwell, HPLC)
- Format: in vitro ADME
- experimental-context: human, Caco-2; ANC 0.10 ×10^−3 mg/mL, 4 h; read-out: Papp (B→A)/ Papp (A→B)
measured-quantity: efflux ratio at 4 h, 0.1 ×10^−3 mg/mL
Lab note: record just the number, no unit beside it.

Entry OC[C@H]1O[C@@H](Oc2cc3c(O)cc(O)cc3[o+]c2-c2ccc(O)c(O)c2)[C@H](O)[C@@H](O)[C@@H]1O [ANC, Cyanidin-3-glucoside] — recorded efflux ratio at 4 h, 0.1 ×10^−3 mg/mL = 0.75

----------
- assay-comment: ANC transmembrane transport across Caco-2 cell monolayer (Transwell, HPLC)
- Assay type: in vitro ADME
- experimental-context: human, Caco-2; ANC 0.15 ×10^−3 mg/mL, 4 h
measured-quantity: Papp A→B at 4 h, 0.15 ×10^−3 mg/mL (×10⁻⁶ cm/s)
Could you give me the number in ×10⁻⁶ cm/s? Just the number is fine.

Entry OC[C@H]1O[C@@H](Oc2cc3c(O)cc(O)cc3[o+]c2-c2ccc(O)c(O)c2)[C@H](O)[C@@H](O)[C@@H]1O [ANC, Cyanidin-3-glucoside] — recorded Papp A→B at 4 h, 0.15 ×10^−3 mg/mL = 1.5
